Test: gradient 5% acetonitrile 3 min, to 50% in 2 min, to 85% in 15 min, held 3 min, 100 µL/min
Conditions: column: Zorbax Extend-C18 2.1 x 50 mm; eluents: water / acetonitrile, 0.1% formic acid
Reported values of RP-LC retention time for individual entries
Lab note: write values as number then unit, every time.

Below are worked cases with known answers.
molecule: Cc1cc(C)cc(NC(=O)c2c(O)c3cccnc3n(-c3ccccc3)c2=O)c1
property: RP-LC retention time
reported.measurement: 1430 s
--
molecule: Cn1c(N2CCCC(C(=O)NCCC3=CCCCC3)C2)cc(=O)n(C)c1=O (stereo not drawn)
property: RP-LC retention time
reported.measurement: 754 s
--
molecule: COc1cc(NC(=O)COc2ccc(-c3nnc4n3CCCC4)cc2)cc(OC)c1OC
property: RP-LC retention time
reported.measurement: 646 s
--
molecule: Cc1cc(Cl)ccc1OCC(=O)NCC1CCOCC1
property: RP-LC retention time
reported.measurement: 828 s
--
molecule: CC1=C(c2ccccc2)S(=O)(=O)N=C1N1CCCN(C(=O)c2ccsc2)CC1
property: RP-LC retention time
reported.measurement: 571 s

Which RP-LC retention time is reported for this molecule? COC1C(=O)N(c2cccc(F)c2)C12CCN(C(=O)C1(c3ccccc3)CC1)CC2 (stereo not drawn) 994 s

Which RP-LC retention time is reported for this molecule? CCOc1ccccc1CNC(=O)c1nc(N2CCOCC2)c2ccccc2n1 738 s

Which RP-LC retention time is reported for this molecule? Cc1nc(-c2noc(-c3ccc(F)cc3)n2)cn1CC(=O)Nc1ccccc1 836 s

Which RP-LC retention time is reported for this molecule? O=C(Nc1cc(F)c(F)c(F)c1)N1CCc2nc[nH]c2C1 614 s

Which RP-LC retention time is reported for this molecule? Cc1nc(NC(=O)c2ccc(-n3ccnc3)nn2)sc1C 589 s

Which RP-LC retention time is reported for this molecule? COc1ccccc1-c1nc(COc2cc(C)c3c(C)nn(C)c3n2)c(C)o1 1030 s

Which RP-LC retention time is reported for this molecule? COc1cc(OC)cc(N2C(=O)C3N=NN(Cc4nc(-c5ccc(Cl)cc5)no4)C3C2=O)c1 (stereo not drawn) 1020 s

Which RP-LC retention time is reported for this molecule? Cc1cccc(-c2noc(-c3ccc(N4CCN(C)CC4)nc3)n2)c1 708 s

###

Experiment: gradient 5% acetonitrile 3 min, to 50% in 2 min, to 85% in 15 min, held 3 min, 100 µL/min
Conditions: column: Zorbax Extend-C18 2.1 x 50 mm; eluents: water / acetonitrile, 0.1% formic acid
property: RP-LC retention time (s)
Reply with just the number (in s).

Below are worked cases with known answers.
compound: CC(=O)Nc1cc(NC(C)=O)ncn1
reported.measurement: 644
//
compound: O=C(COc1ccc(Br)cc1)NCC(c1cccs1)N1CCCC1 (stereo unspecified)
reported.measurement: 672

Which RP-LC retention time is reported for this compound? Cc1nc2ccn(Cc3ccco3)c(=O)c2cc1C(=O)NCCC(C)C 776

Which RP-LC retention time is reported for this compound? CCN1c2ccc(C)cc2C(=O)NC12CCN(C(=O)Cc1cccc(OC)c1)CC2 802

Which RP-LC retention time is reported for this compound? COC(=O)c1c(NCC2CCCO2)c2cccc(Cl)c2[nH]c1=O (stereo unspecified) 703

Which RP-LC retention time is reported for this compound? CCN1CCN(CCCNC(=O)c2c(-c3ccc(Br)s3)noc2C)CC1 594
